Overview of recorded EC50 for various molecules
Target: hCB1 receptors (Homo sapiens)
Sequence (P21554 whole entry): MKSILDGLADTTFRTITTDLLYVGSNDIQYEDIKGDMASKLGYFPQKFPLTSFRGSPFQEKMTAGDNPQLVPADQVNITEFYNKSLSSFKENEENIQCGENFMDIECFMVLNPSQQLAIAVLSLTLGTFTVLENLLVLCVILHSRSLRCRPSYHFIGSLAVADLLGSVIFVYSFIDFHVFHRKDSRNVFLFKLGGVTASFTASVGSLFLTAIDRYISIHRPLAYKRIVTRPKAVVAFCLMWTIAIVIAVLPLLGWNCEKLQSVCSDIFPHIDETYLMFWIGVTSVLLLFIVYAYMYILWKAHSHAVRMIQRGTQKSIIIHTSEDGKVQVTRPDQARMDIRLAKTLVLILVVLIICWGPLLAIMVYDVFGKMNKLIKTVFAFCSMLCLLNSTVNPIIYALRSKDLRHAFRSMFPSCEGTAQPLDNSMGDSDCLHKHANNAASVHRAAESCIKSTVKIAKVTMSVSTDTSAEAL
Test: CB1 cAMP assay (inhibition of forskolin-stimulated cAMP accumulation)
Conditions: EC50 of 2-AG + Compound (1 μM), 2-AG in presence of 1 μM compound; forskolin 2 μM; HEK293 and/or CHO hCB1
resultType: EC50 (nM)

- molecule: "O=[N+]([O-])CC(c1ccc(B(O)O)cc1)c1c(-c2ccccc2)[nH]c2ccccc12 (stereo not drawn)"
  resultType: "EC50"
  readoutNumber: 102
- molecule: "O=[N+]([O-])CC(c1cccc(B(O)O)c1)c1c(-c2ccccc2)[nH]c2ccccc12 (stereo not drawn)"
  resultType: "EC50"
  readoutNumber: 40.8
- molecule: "O=[N+]([O-])C[C@H](c1ccc(B(O)O)cc1)c1c(-c2ccccc2)[nH]c2ccccc12 (single isomer, unassigned)"
  resultType: "EC50"
  readoutNumber: 51.3
- molecule: "O=[N+]([O-])C[C@@H](c1ccc(B(O)O)cc1)c1c(-c2ccccc2)[nH]c2ccccc12 (single isomer, unassigned)"
  resultType: "EC50"
  readoutNumber: 37.5
- molecule: "O=[N+]([O-])CC(c1ccccc1)c1c(-c2ccc(B(O)O)cc2)[nH]c2ccccc12 (stereo not drawn)"
  resultType: "EC50"
  readoutNumber: 57
- molecule: "O=[N+]([O-])CC(c1ccc(B(O)O)cc1)c1c(-c2ccc(N=C=S)cc2)[nH]c2ccccc12 (stereo not drawn)"
  resultType: "EC50"
  readoutNumber: 57.2

* * *

Target: human MGL (hMGL) (Homo sapiens)
Construct: made in house; host or cells: E. coli (lysate)
Experiment: Fluorescent assay for human MGL inhibition
Format: biochemical
Conditions: hMGL in E. coli lysate, 15 min preincubation, AHMMCE or VHMMCE substrate; read-out: MGL inhibition IC50
Catalogue of IC50 values

- molecule: "O=[N+]([O-])CC(c1ccc(N=C=S)cc1)c1c(-c2ccccc2)[nH]c2ccccc12 (stereo not drawn)"
  IC50: "1160 nM"
- molecule: "O=[N+]([O-])CC(c1cccc(B(O)O)c1)c1c(-c2ccccc2)[nH]c2ccccc12 (stereo not drawn)"
  IC50: "979 nM"
- molecule: "O=[N+]([O-])CC(c1ccccc1)c1c(-c2ccccc2)[nH]c2cc(B(O)O)ccc12 (stereo not drawn)"
  IC50: "46.8 nM"
- molecule: "O=[N+]([O-])C[C@H](c1ccc(B(O)O)cc1)c1c(-c2ccccc2)[nH]c2ccccc12 (single isomer, unassigned)"
  IC50: "271 nM"
- molecule: "O=[N+]([O-])CC(c1ccc(B(O)O)cc1)c1c(-c2ccccc2)[nH]c2ccccc12 (stereo not drawn)"
  IC50: "63.5 nM"
- molecule: "O=[N+]([O-])C[C@@H](c1ccc(B(O)O)cc1)c1c(-c2ccccc2)[nH]c2ccccc12 (single isomer, unassigned)"
  IC50: "58.8 nM"

* * *

Target: human MGL (hMGL) (Homo sapiens, UniProt Q99685)
Construct: made in house; host or cells: E. coli (lysate)
Sequence (Q99685 whole entry): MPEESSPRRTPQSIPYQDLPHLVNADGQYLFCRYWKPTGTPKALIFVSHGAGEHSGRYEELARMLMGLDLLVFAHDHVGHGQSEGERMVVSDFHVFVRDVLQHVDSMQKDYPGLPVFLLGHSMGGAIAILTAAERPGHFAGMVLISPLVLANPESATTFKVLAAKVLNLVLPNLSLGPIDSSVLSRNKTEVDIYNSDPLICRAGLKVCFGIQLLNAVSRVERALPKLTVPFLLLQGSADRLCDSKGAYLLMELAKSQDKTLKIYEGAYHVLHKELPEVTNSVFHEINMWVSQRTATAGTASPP
Assay: Fluorescent assay for human MGL inhibition
Assay type: biochemical
resultType: IC50 (nM)

- molecule: "O=[N+]([O-])CC(c1ccccc1)c1c(-c2ccc(S(=O)(=O)F)cc2)[nH]c2ccccc12 (stereo not shown)"
  resultType: "IC50"
  readoutNumber: 32.3
